protocol text: Acute toxicity (LD50) in the mouse
test context: in vivo, ip, 24 hrs, solution in distilled water, read-out: Approximate Acute Toxicity (24 hrs.) In the Mouse, LD50
Where a name gives a salt, the structure may show the parent alone.
quantity: LD50 at 24 h

Using the record for COc1cc(C(=O)Nc2ccc3c(c2)CCN(C)C3)cc(OC)c1OC [M-72, HCl] , report its LD50 at 24 h. 188 to 250 mg/kg

----------
protocol text: Acute toxicity (LD50) in the mouse
test context: in vivo, ip, 24 hrs, suspension in 1% tragacanth, read-out: Approximate Acute Toxicity (24 hrs.) In the Mouse, LD50
Counter-ions that a name gives are not always drawn.
quantity: LD50 at 24 h

Using the record for COc1ccc(C(=O)Nc2cccc3c2CCNC3)cc1 [M-44, HCl] , report its LD50 at 24 h. 500 to 1000 mg/kg

----------
protocol text: Acute toxicity (LD50) in the mouse
test context: in vivo, Table I, unit, species and route not given
Structures can show the parent of a compound that is named as a salt.
Measured LD50 of individual entries

Would you please look over these solved cases?
CN1CCc2c(cccc2NC(=O)c2ccccc2)C1 [M-54] = 125 to 250 mg/kg
CN1CCc2c(cccc2NC(=O)c2ccccc2Br)C1 [M-60] = 125 to 250 mg/kg
COc1ccc(C(=O)Nc2cccc3c2CCN(C)C3)cc1 [M-56] = 62 to 125 mg/kg

Using the record for COc1cc(C(=O)Nc2cccc3c2CCNC3)cc(OC)c1OC [M-46, HCl] , report its LD50. 250 to 500 mg/kg

Continue with COc1ccc(C(=O)Nc2cccc3c2CCN(C)C3)cc1OC [M-55] 125 to 250 mg/kg

Continue with COc1ccc(C(=O)Nc2cccc3c2CCNC3)cc1OC [M-34, HCl] 500 to 1000 mg/kg

Continue with COc1cc(C(=O)Nc2ccc3c(c2)CN(C)CC3)cc(OC)c1OC [M-59] 250 to 500 mg/kg

Continue with COc1cc(OC)c(C(=O)Nc2cccc3c2CCN(C)C3)cc1OC [M-61] 68 to 125 mg/kg

Continue with COc1cc(C(=O)Nc2cccc3c2CCN(C)C3)cc(OC)c1OC [M-20] 125 to 250 mg/kg
